assay: In vivo toxic effect was determined in mouse after intraperitoneal administration with 10% aqueous acacia gum; value ranges from 0.43-0.73; format: toxicity, organism-based; conditions: ip
Experimental endpoint: LD50 (µmol/kg)
# value in µmol/kg; strip the unit string

Lookup: Report LD50 for "Cl.Cl.O=C(CCN1CCN(c2ccccn2)CC1)Nc1cccc(C(F)(F)F)c1" please.
Found: 560

----------
experiment: In vivo toxic effect was determined in mouse after oral administration with 10% aqueous acacia gum; value ranges from 0.84-1.62; format: toxicity, organism-based
Experimental endpoint: LD50 (µmol/kg)
# value in µmol/kg; strip the unit string

Lookup: Report LD50 for "Cl.Cl.O=C(CCN1CCN(c2ccccn2)CC1)Nc1cccc(C(F)(F)F)c1" please.
Found: 1170
